Data origin: patent US10011595B2

Biological target: human orexin-2 receptor (Homo sapiens (Human))
Assay: FLIPR Ca2+ Flux Assay, orexin-2 receptor
Settings: CHO cells expressing the human orexin-2 receptor; agonist 70 pM Ala-6,12 orexin-A; read-out: hOX2R FLIPR IC50
So I've got a bunch of compounds here, and I need their IC50 values.
Enter your answer as a number in nM; do not include the unit.

Report IC50 for `CCN(CCN(C)c1cc(C#N)ccn1)C(=O)c1cccnc1Oc1ccccc1`
10000

Report IC50 for `CCOc1ncccc1C(=O)N(CC)CCN(C)c1nc(C)cc(C)n1`
68.1

Report IC50 for `CCN(CCN(C)c1nc(C)cc(C)n1)C(=O)c1cccnc1OCC(F)(F)F`
19.8

Report IC50 for `CCN(CCN(C)c1nccc(C(C)(C)O)n1)C(=O)c1cccnc1OCC(F)(F)F`
21.7

Report IC50 for `CCOc1cccc(C(=O)N(CC)CCN(C)c2cc(C#N)ccn2)c1OC`
10000

Report IC50 for `CC(C)CN(CCN(C)c1cc(C#N)ccn1)C(=O)c1ccccc1-n1nccn1`
12.2

Report IC50 for `CCN(CCN(C)c1nccc(C(C)(C)O)n1)C(=O)c1ccccc1OC(F)(F)F`
10

Report IC50 for `CCN(CCN(C)c1nc(Cl)cc(N(C)C)n1)C(=O)c1ccccc1-n1nccn1`
18.4

Report IC50 for `CCN(CCN(C)c1nccc(C(C)(C)O)n1)C(=O)c1cccnc1CC(F)(F)F`
179

Report IC50 for `CCN(CCN(C)c1nc(C)cc(C)n1)C(=O)c1ccc(OC)nc1C1CC1`
32.1

Report IC50 for `CN(CCN(C)c1cc(C#N)ccn1)C(=O)c1ccccc1-n1nccn1`
88

Report IC50 for `CCN(CCN(C)c1nc(C)cc(C)n1)C(=O)c1ccccc1CC(F)F`
94.9

Report IC50 for CCN(CCN(C)c1cccc(C#N)n1)C(=O)c1ccccc1-n1nccn1 [Example E-14]
569

Report IC50 for `CCN(CCN(CC(F)F)c1nc(C)cc(C)n1)C(=O)c1ccccc1-n1nccn1`
56.1

Report IC50 for `CCN(CCN(C)c1nccc(C(C)(C)O)n1)C(=O)c1ncccc1-c1ccccc1`
23

Report IC50 for `CCN(CCN(C)c1cc(C#N)ccn1)C(=O)c1ccccc1-n1ccnn1`
461

Report IC50 for `CCN(CCN(C)c1nc(C)cc(C)n1)C(=O)c1ccccc1N1CCCC1`
18.5

Report IC50 for `CCN(CCN(C)c1nc(C)cc(C)n1)C(=O)c1ccccc1C1CC1`
26.4

---

Biological target: human orexin-2 receptor (Homo sapiens (Human), UniProt O43614)
Sequence (O43614 whole entry): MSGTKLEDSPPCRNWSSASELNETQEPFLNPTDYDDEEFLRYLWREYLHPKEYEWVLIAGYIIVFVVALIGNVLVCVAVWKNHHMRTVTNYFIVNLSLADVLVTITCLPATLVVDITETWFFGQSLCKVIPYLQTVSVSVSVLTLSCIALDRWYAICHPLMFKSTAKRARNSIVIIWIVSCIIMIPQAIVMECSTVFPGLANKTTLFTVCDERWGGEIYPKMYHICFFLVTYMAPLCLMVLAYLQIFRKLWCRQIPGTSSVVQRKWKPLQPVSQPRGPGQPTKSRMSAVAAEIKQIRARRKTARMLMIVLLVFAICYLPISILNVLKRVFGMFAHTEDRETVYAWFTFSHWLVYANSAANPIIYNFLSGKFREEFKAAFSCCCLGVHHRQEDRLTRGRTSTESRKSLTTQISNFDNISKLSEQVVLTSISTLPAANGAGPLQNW
Assay: FLIPR Ca2+ Flux Assay, orexin-2 receptor
Details: CHO cells expressing the human orexin-2 receptor; agonist 70 pM Ala-6,12 orexin-A; read-out: hOX2R FLIPR IC50
So I've got a bunch of compounds here, and I need their pIC50 values.
On this scale, pIC50 is minus log10 of a concentration expressed in M (mol/L).

Report pIC50 for CCN(CCN(C)c1nccc(C(C)(C)O)n1)C(=O)c1cccnc1-c1ccccc1 [Example H-30]
7.28

Report pIC50 for CCN(CCN(C)c1nc(C)cc(C)n1)C(=O)c1ccccc1C1CC1(F)F (stereo not drawn) [Example B-29]
7.72

Report pIC50 for CCN(CCNc1nc(C)cc(C)n1)C(=O)c1ccccc1-n1nccn1 [Example A-5]
5.75

Report pIC50 for CCN(CCN(C)c1nc(C)cc(C)n1)C(=O)c1ccccc1OC(F)F [Example B-8]
7.73

Report pIC50 for CCN(CCN(C)c1nccc(C(C)(C)O)n1)C(=O)c1cccnc1OC(C)C [Example H-14]
7.18

Report pIC50 for CCOc1ncccc1C(=O)N(CC)CCN(C)c1cccc(C(C)(C)O)n1 [Example I-25]
6.33

Report pIC50 for CCN(CCN(C)c1cc(C#N)ccn1)C(=O)c1cccc2[nH]c(=O)oc12 [Example F-18]
5.00

Report pIC50 for CCN(CCN(C)c1cccc(C(C)(C)O)n1)C(=O)c1ccccc1OCC(F)(F)F [Example I-17]
6.49

Report pIC50 for CCN(CCN(C)c1cc(C#N)ccn1)C(=O)c1ccccc1-n1cccn1 [Example F-12]
7.30

Report pIC50 for CCN(CCN(C)c1cccc(C(C)(C)O)n1)C(=O)c1cccnc1-n1cccn1 [Example I-24]
6.98

Report pIC50 for CCN(CCN(C)c1nc(OC)cc(OC)n1)C(=O)c1ccccc1-n1nccn1 [Example E-9]
6.47

Report pIC50 for CCN(CCN(C)c1nc(C)cc(C)n1)C(=O)c1ccccc1-c1ncccn1 [Example B-32]
7.71

Report pIC50 for CCCCN(CCN(C)c1cc(C#N)ccn1)C(=O)c1ccccc1-n1nccn1 [Example G-5]
7.70

Report pIC50 for CCN(CCN(C)c1nc(C)cc(C)n1)C(=O)c1ccccc1OCC(F)F [Example B-20]
8.04

Report pIC50 for CCN(CCN(C)c1cccc(C(C)(C)O)n1)C(=O)c1cccnc1OCC(F)F [Example I-16]
6.63

Report pIC50 for CCN(CCN(C)c1nccc(C(C)(C)O)n1)C(=O)c1nccnc1-n1cccn1 [Example H-32]
7.27

Report pIC50 for CCN(CCN(C)c1nc(C)cc(C)n1)C(=O)c1ccc(F)cc1-n1nccn1 [Example B-12]
7.90

Report pIC50 for CC(C)N(CCN(C)c1cc(C#N)ccn1)C(=O)c1ccccc1-n1nccn1 [Example G-9]
7.12
